The values you see were collected from paper PMC8698657.

# assay_name: Trans-enterocyte transport of CA in Caco-2 cell monolayer
# Type: in vitro ADME, human
# run_parameters: human, Caco-2, CA 50 μM, 3.0 h
quantity_measured: Papp B→A at 3 h, 50 μM (×10⁻⁶ cm/s)
State just the number; it will be interpreted in ×10⁻⁶ cm/s.

Bench note: what Papp B→A at 3 h, 50 μM did CC(C)c1cc2c(c(O)c1O)[C@@]1(C(=O)O)CCCC(C)(C)[C@@H]1CC2 show?
0.29

---

# assay_name: Trans-enterocyte transport of CA in Caco-2 cell monolayer
# Format: in vitro ADME, human
# run_parameters: human, Caco-2, CA 100 μM, 2.5 h
quantity_measured: efflux ratio at 2.5 h, 100 μM

Bench note: what efflux ratio at 2.5 h, 100 μM did CC(C)c1cc2c(c(O)c1O)[C@@]1(C(=O)O)CCCC(C)(C)[C@@H]1CC2 [CA, Carnosic acid] show?
1.7
